Target: T1, phycoerythrin (PE)-conjugated BCMA (Recombinant Human TNFRSF17 protein, Fc/His-tagged, R-PE labeled); Creative … (human, UniProt Q02223 1-54, R-PE labeled)
T1 construct: Bought reagent; also called BCMA-PE; not shown: Fc/His tag of the bought reagent
T1 sequence: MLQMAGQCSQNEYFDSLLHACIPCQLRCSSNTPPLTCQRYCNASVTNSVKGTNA
Assay: flow cytometry; CAR T cells stained with BCMA-PE, 3 days after electroporation
Criterion: BCMA Binding (arbitrary units) meeting or surpassing 400 arbitrary units. Met: satisfied. Not met: not satisfied.

>>> category("CAR comprising scFv-1′ (SEQ ID NO: 62) (other, CAR on mRNA-electroporated human CD8+ T cells; Only the scFv is identified; not shown: rest of the CAR (hinge, transmembrane, cytoplasmic domains) not specified for this construct) DIVLTQSPSSLSASVGDRATISCRASESVTILGSHLIHWYQQKPGQAPKLLIQLASNVQTGVPARFSGSGSGTDFTLTISSVEPEDVAVYYCLQSRTIPRTFGQGTKVEIKGSTSGSGKPGSGEGSTKGQIQLVQSGPELKKPGGSVKISCAASGYTFTSYDINWVRQAPGKGLEWVGWINTETREPAYAYDFRGRFTFSADTSKSTAYLQMNSLRAEDTAVYYCALDYSYAMDYWGQGTLVTVSS")
"not satisfied"
>>> category("CAR comprising scFv-Y37 (SEQ ID NO: 60) (other, CAR on mRNA-electroporated human CD8+ T cells; Only the scFv is identified; not shown: rest of the CAR (hinge, transmembrane, cytoplasmic domains) not specified for this construct) DIVLTQSPASLAVSPGQRATITCRASESVTILGSHLIHWYQQKPGQPPKLLIQLASNVQTGVPARFSGSGSGTDFTLTISSVEPEDTANYYCLQSRTIPRTFGQGTKVEIKGSTSGSGKPGSGEGSTKGQIQLVQSGPELKKPGGSVKISCKASGYTFTDYSINWVRQAPGKGLEWVGWINTETREPAYAYDFTGRFTFSADTSKSMAYLQINSLRAEDTAVYYCALDYSYAMDYWGQGTLVTVSS")
"not satisfied"
>>> category("CAR comprising scFv-4′ (SEQ ID NO: 63) (other, CAR on mRNA-electroporated human CD8+ T cells; Only the scFv is identified; not shown: rest of the CAR (hinge, transmembrane, cytoplasmic domains) not specified for this construct) DIVLTQSPSSLSASVGDRATISCRASESVTILGSHLIHWYQQKPGQAPKLLIQLASNVQTGVPARFSGSGSGTDFTLTISSVEPEDVAVYYCLQSRTIPRTFGQGTKVEIKGSTSGSGKPGSGEGSTKGQIQLVQSGPELKKPGGSVKISCAASGYTFTDYSINWVRQAPGKGLEWVGWINTETREPAYAYDFRGRFTFSADTSKSTAYLQMNSLRAEDTAVYYCALDYTYGMDYWGQGTLVTVSS")
"satisfied"

Q) Check if BCMA Binding (arbitrary units) >= 400 arbitrary units (inclusive). Item: CAR comprising scFv-13′ (SEQ ID NO: 69) (other, CAR on mRNA-electroporated human CD8+ T cells; Only the scFv is identified; not shown: rest of the CAR (hinge, transmembrane, cytoplasmic domains) not specified for this construct) DIVLTQSPSSLSASVGDRATISCRASESVSFLGINLIHWYQQKPGQAPKLLIYLASNLETGVPARFSGSGSGTDFTLTISSVEPEDVAVYYCLQSRTLPRTFGQGTKVEIKGSTSGSGKPGSGEGSTKGQIQLVQSGPELKKPGGSVKISCAASGYTFTSYSINWVRQAPGKGLEWVGWINTETREPAYAQGFTGRFTFSADTSKSTAYLQMNSLRAEDTAVYYCALDYLYSLDFWGQGTLVTVSS
A) not satisfied
